- assay explanation: Toxicity liver stage against HepG2, at 10uM
- Type: cell-based
- Parameters: test concentration 10 uM, cell line HepG2-A16-CD81EGFP
- condition summary: human, HepG2-A16-CD81EGFP cells; read-out: INHIBITION
Here the recorded cytotoxicity at 10 µM is given for each entry.
Write the answer as a number in %, unit excluded.

Problem: Determine from records and report cytotoxicity at 10 µM for COCCCN1Cc2cccc(NC(=O)C(C)(C)C)c2C1
Result: 2.06

Problem: Quickly give me recorded cytotoxicity at 10 µM for Cc1c(CNC(=O)Nc2cccc3c2CCN3C)cnn1C
Result: -1.02

Problem: Identify the reported cytotoxicity at 10 µM for the following entry. CCCn1nccc1NC(=O)CN1CCCC1Cn1nc(C)nc1C (configuration not stated)
Result: -6.84

---

Below, each entry is listed alongside its reported cytotoxicity at 10 µM.
- assay explanation: Toxicity liver stage against HepG2, at 10uM
- Type: cell-based
- Design: test concentration 10 uM, cell line HepG2-A16-CD81EGFP
- condition summary: human, HepG2-A16-CD81EGFP cells; read-out: INHIBITION
Answer format: numeric, % implied, no suffix.

Example cases with answers are listed next.
{"compound": "O=S(=O)(NCc1ccccc1)N1CCN(c2ncccn2)CC1", "numeric readout": 4.7}
{"compound": "CNc1nc(CNC(=O)Nc2ccccc2C(F)(F)F)cs1", "numeric readout": -0.896}
{"compound": "O=C(NC1CC1)N1Cc2[nH]nc(COc3cccnc3)c2C1", "numeric readout": 4.77}
{"compound": "CCc1nnc2n1CCN(C(=O)C(OC)c1ccccc1)C2 (centres undefined)", "numeric readout": 3.65}
{"compound": "O=C(O)c1ccccc1-c1ccc(CN2CCC(CO)C2)cn1 (centres undefined)", "numeric readout": -1.79}

Problem: Specify cytotoxicity at 10 µM for Cc1cccc(C(C(=O)N(C)Cc2cc(C)no2)N(C)C)c1 (centres undefined) and stop.
Result: 4.94

Problem: Specify measured cytotoxicity at 10 µM for CC[C@@H]1N(Cc2ccncc2)CCC[C@]12CCC(=O)N2C .
Result: 10.5

Problem: For COc1cnc(C2(O)CCN(C(=O)c3scnc3C)CC2)c(OC)n1 , write its cytotoxicity at 10 µM.
Result: -6.41

Problem: Tell me measured cytotoxicity at 10 µM for O=C(NCC(O)COc1ccc(F)cc1)C1(c2ccc(F)cc2)CC1 (centres undefined) please.
Result: 2.71

Problem: For the compound Cc1cccc(CN2CCC3(CCC(C(=O)N(C)C)O3)CC2)n1 (centres undefined) , give its measured cytotoxicity at 10 µM value.
Result: 3.14

Problem: Identify the reported cytotoxicity at 10 µM for the following entry. OCC1(O)CCN(Cc2ccc(-c3cc[nH]n3)s2)CC1
Result: -135

Problem: Using the record for CN(C)[C@@H]1CCN(C(=O)c2ccco2)[C@H]1Cc1cnn(C)c1 , state its measured cytotoxicity at 10 µM.
Result: -81.9

Problem: // fetch cytotoxicity at 10 µM given entry CCc1cc(NCCNc2ccncc2C)n2nc(C)c(C)c2n1
Result: 3.29

Problem: // Input: OC(CN1CCN(CCOCC(F)(F)F)CC1)c1ccccc1 (centres undefined) . Output its cytotoxicity at 10 µM only.
Result: -7.99

Problem: Give cytotoxicity at 10 µM for the following compound: O=C1N[C@@H]2CCN(C(=O)C3CCCC3)[C@@H]2C(=O)N1c1ccc(F)cc1
Result: -1.1

Problem: Consider the compound CC(Cn1cccn1)NC(=O)N1CCN(Cc2cccnc2)CC1 (centres undefined) . State its measured cytotoxicity at 10 µM.
Result: -18.2

Problem: Provide only the value of recorded cytotoxicity at 10 µM for CS(=O)(=O)c1ccc(C(=O)NCCNc2ncccn2)cc1
Result: -5.15

Problem: Give recorded cytotoxicity at 10 µM. CCC(=O)NC(CC(C)C)c1cccs1 (centres undefined)
Result: 6.18

Problem: Consider the compound Cc1ccc(CN2CCc3ncnc(-c4ccc(F)cc4)c3CC2)o1 and give its recorded cytotoxicity at 10 µM.
Result: -9.49

Problem: Look up and state reported cytotoxicity at 10 µM for CN(CC(=O)NCCc1cc2ccccc2o1)S(C)(=O)=O
Result: 6.56

Problem: Using the record for O=C(c1cscn1)N1CCC[C@]2(C[C@H](OCC3CC3)CO2)C1 , state its measured cytotoxicity at 10 µM.
Result: -2.86

---

- assay explanation: Toxicity liver stage against HepG2, at 10uM
- Format: cell-based
- Parameters: test concentration 10 uM, cell line HepG2-A16-CD81EGFP
- condition summary: human, HepG2-A16-CD81EGFP cells; read-out: INHIBITION
measured parameter: cytotoxicity at 10 µM (%)
Numeric answer only, unit % assumed.

// worked examples, cytotoxicity at 10 µM included
{"compound": "CCC(C)(C)NC(=O)COC(=O)c1cc(C)ccc1NC(=O)N(C)C", "cytotoxicity at 10 µM (%)": 1.12}
{"compound": "CCCN1CCC(NCc2cccc(CN3CCOC(C)C3)c2)CC1 (stereo unspecified)", "cytotoxicity at 10 µM (%)": -13}
{"compound": "CCn1nc2c(cc1=O)CN(CCCN1CCCC1=O)CC2", "cytotoxicity at 10 µM (%)": -13.9}
{"compound": "CCc1nnc(CN(CC)C(=O)C2CC(=O)N(CC)C2)o1 (stereo unspecified)", "cytotoxicity at 10 µM (%)": 1.97}
{"compound": "CCN(C)C1COC2(CCN(C(=O)c3cccc(Cl)c3)CC2)C1 (stereo unspecified)", "cytotoxicity at 10 µM (%)": -5.66}

Kindly review the next compound as well.
Problem: Hello, please tell me recorded cytotoxicity at 10 µM for this one: O=C(CN1CCc2cncnc2C1)NC1CCCCNC1=O (stereo unspecified)
Result: 7.36

---

Measured cytotoxicity at 10 µM, listed per entry.
- assay explanation: Toxicity liver stage against HepG2, at 10uM
- Assay type: cell-based
- Design: test concentration 10 uM, cell line HepG2-A16-CD81EGFP
- condition summary: human, HepG2-A16-CD81EGFP cells; read-out: INHIBITION
Provide the reading as a plain figure in %.

{"compound": "COCc1cc(N2C[C@@H](C)[C@](O)(C3CC3)C2)ncn1", "cytotoxicity at 10 µM (%)": 3.73}
{"compound": "CCN(CC(O)c1ccc(C)cc1)C(=O)NC(C)C (stereo not drawn)", "cytotoxicity at 10 µM (%)": -7.74}
{"compound": "COC(=O)c1ccc(C(=O)N2CCC(c3nnc(C)s3)CC2)cc1", "cytotoxicity at 10 µM (%)": 4.95}
{"compound": "CN(C)CCn1nc(C2CCN(Cc3ccccc3)C2)c2cccnc21 (stereo not drawn)", "cytotoxicity at 10 µM (%)": -7.47}
{"compound": "CC(C)(C)c1n[nH]c(C2CN(C(=O)CCc3ccco3)CCO2)n1 (stereo not drawn)", "cytotoxicity at 10 µM (%)": -8.24}

Please examine the following record next.
Problem: Quick one: give measured cytotoxicity at 10 µM for COCC1CN(C(=O)c2cccn2C)Cc2nccn2C1 (stereo not drawn)
Result: 6.92

---

- assay explanation: Toxicity liver stage against HepG2, at 10uM
- Assay type: cell-based
- Design: test concentration 10 uM, cell line HepG2-A16-CD81EGFP
- condition summary: human, HepG2-A16-CD81EGFP cells; read-out: INHIBITION
cytotoxicity at 10 µM values by entry
Express the result in % but write the number alone.

Problem: Return value of cytotoxicity at 10 µM for input CN(C)CCN1CCO[C@H]2CN(Cc3cnn(C)c3)C[C@H]21 , no commentary.
Result: 1.82

Problem: Indicate its recorded cytotoxicity at 10 µM; the compound in question is CCCC(C)NCc1cccnc1N1CCN(c2ccccn2)CC1 (stereo unspecified)
Result: 6.99

Problem: Tell me its cytotoxicity at 10 µM given CNc1cc2c(nn1)CCN(C(=O)C1CCCc3ccccc31)C2 (stereo unspecified) as the entry.
Result: -17.2

Problem: Read the entry O=C1CCC(CCC(=O)N2CCCC2c2nccs2)=NN1 (stereo unspecified) and write its reported cytotoxicity at 10 µM.
Result: 4.06

Problem: Give the value of cytotoxicity at 10 µM reported for the following: CCCc1nc(C)c(C(=O)NCCn2nc3ccccn3c2=O)s1
Result: -10.1

Problem: Dear colleague, please send me the reported cytotoxicity at 10 µM for Cc1cc(C)n(CC(=O)N2C[C@H]3CC[C@@H](C2)N(CC2CCC2)C3)c(=O)n1 when you can.
Result: 13.3

Problem: Consider the compound Cc1nn(-c2ncnc3[nH]cnc23)c2c1C(C(C)C)CC(=O)N2 (stereo unspecified) and give its recorded cytotoxicity at 10 µM.
Result: 10.8

Problem: State its cytotoxicity at 10 µM for this compound: O=C(CN1CCOC(c2ccc(Cl)s2)C1)NCc1ccco1 (stereo unspecified)
Result: -3.09

Problem: Using the record for CN1CCN(Cc2cn3c(n2)CN(Cc2ccccn2)CC3)CC1 , state its measured cytotoxicity at 10 µM.
Result: -117

Problem: Return cytotoxicity at 10 µM (reported value) for this compound: O=S(=O)(CCCNC1CCc2ncnn2C1)c1ccccc1 (stereo unspecified)
Result: 2.53

Problem: Answer with reported cytotoxicity at 10 µM of CNc1snc(C)c1C(=O)N1CCCC(n2nc(C)cc2C)C1 (stereo unspecified)
Result: -2.74
